Biological target: rat SGLT1 (Rattus norvegicus, UniProt P53790)
Sequence (P53790 whole entry): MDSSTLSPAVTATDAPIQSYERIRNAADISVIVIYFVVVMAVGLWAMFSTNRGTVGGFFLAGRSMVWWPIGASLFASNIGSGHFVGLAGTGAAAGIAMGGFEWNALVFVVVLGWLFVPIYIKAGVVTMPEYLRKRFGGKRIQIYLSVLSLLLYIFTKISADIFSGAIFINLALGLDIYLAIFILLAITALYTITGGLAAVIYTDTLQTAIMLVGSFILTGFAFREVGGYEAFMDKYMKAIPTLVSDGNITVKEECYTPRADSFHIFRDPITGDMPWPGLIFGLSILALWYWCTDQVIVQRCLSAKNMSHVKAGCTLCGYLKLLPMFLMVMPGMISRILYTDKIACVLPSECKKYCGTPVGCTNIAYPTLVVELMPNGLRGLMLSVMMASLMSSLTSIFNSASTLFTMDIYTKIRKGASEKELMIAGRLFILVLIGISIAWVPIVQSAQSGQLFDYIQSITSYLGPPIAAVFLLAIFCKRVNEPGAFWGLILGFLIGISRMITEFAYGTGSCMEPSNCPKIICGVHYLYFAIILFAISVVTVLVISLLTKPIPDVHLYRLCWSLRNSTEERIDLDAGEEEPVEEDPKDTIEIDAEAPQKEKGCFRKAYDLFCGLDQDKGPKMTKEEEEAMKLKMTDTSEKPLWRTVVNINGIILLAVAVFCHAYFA
Experiment: Assay for inhibitory effects on rat SGLT1 activity (uptake of methyl-α-D-glucopyranoside in CrS1 cells)
Conditions: CHO-K1 cells stably expressing rat SGLT1 (CrS1), 1 mM α-MG, 37° C., 1 hour; read-out: IC50 value, inhibition of uptake of methyl-α-D-glucopyranoside
pIC50: −log10 of the molar value.

{"structure-notation": "Cc1cc(O)cc(O[C@@H]2O[C@H](CO)[C@@H](O)[C@H](O)[C@H]2O)c1Cc1ccc(NC(=O)NCc2cccnc2)cc1", "pIC50": 6.86}
{"structure-notation": "Cc1cc(OCCNC(=N)N)ccc1Cc1c(O[C@@H]2O[C@H](CO)[C@@H](O)[C@H](O)[C@H]2O)n[nH]c1C(C)C", "pIC50": 7.42}
